src = patent US11834414B2

- assayed_system: CYP2D6 (Homo sapiens (Human), UniProt P10635)
- Sequence (P10635 whole entry): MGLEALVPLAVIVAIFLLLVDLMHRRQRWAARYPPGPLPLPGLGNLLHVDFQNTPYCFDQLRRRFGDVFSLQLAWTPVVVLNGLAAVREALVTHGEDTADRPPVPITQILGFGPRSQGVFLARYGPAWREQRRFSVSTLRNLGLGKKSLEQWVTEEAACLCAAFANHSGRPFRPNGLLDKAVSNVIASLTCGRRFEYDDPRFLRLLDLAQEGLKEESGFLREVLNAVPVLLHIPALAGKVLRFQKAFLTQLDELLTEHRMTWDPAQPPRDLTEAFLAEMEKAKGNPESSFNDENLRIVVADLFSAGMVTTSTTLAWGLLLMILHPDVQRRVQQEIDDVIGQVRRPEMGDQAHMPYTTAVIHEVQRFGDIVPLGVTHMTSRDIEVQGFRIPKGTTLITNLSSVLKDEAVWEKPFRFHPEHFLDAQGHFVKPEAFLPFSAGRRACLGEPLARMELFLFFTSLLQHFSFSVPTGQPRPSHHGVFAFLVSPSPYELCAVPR
- experiment_summary: Human Cytochrome P450 Inhibition Assay (Bactosomes)
- Assay type: in vitro ADME
- particulars: recombinant Bactosomes, 10 minutes, 37° C.
Attribute: IC50

GET /value?item= CC1(O)CCC(NS(=O)(=O)c2ccc(-c3ncc(Cl)cc3C#N)cc2)CC1 (centres unmarked) [HMC-N-05-A, reference compound] &field=IC50 returns > 50 µM

Reported IC50 ( C[C@]1(O)CC[C@H](CS(=O)(=O)c2ccc(-c3ccc(F)cc3F)cc2C(F)(F)F)CC1 [CHMSA-08-B] ) = > 10 µM

More entries:
# IC50 (compound: CC1(O)CCC(NS(=O)(=O)c2ccc(-c3cc(F)c(F)cc3F)cc2)CC1 (centres unmarked) [HMC-C-10-B, reference compound] ) is > 16 µM

Lab note: C[C@]1(O)CC[C@@H](CS(=O)(=O)c2ccc(-c3ncc(F)cc3F)cc2C(F)(F)F)CC1 [CHMSA-09-A] gave IC50 of > 25 µM

Quick note, IC50 for C[C@]1(O)CC[C@@H](CS(=O)(=O)c2ccc(-c3ccc(Cl)cc3Cl)cc2)CC1 [CHMSA-11-A] landed at > 10 µM

Briefly, IC50 measured for CC1(O)CCC(NS(=O)(=O)c2ccc(-c3ccc(C#N)cc3Cl)cc2)CC1 (centres unmarked) [HMC-C-09-A, reference compound] : > 50 µM

The compound identified as C[C@]1(O)CC[C@@H](NS(=O)(=O)c2ccc(-c3ccc(F)cc3F)cc2)CC1 [ABD899, reference compound] registered its IC50 at 45.3 µM

IC50 recorded for this compound, C[C@]1(O)CC[C@@H](CS(=O)(=O)c2ccc(-c3ncc(F)cc3F)c(F)c2)CC1 [CHMSA-03-A] , is > 50 µM

Query C[C@]1(O)CC[C@H](CS(=O)(=O)c2ccc(-c3ccc(C#N)cc3F)cc2C(F)(F)F)CC1 [CHMSA-02-B] yields IC50 of > 10 µM

// field: IC50; key: C[C@]1(O)CC[C@@H](CS(=O)(=O)c2ccc(-c3ccc(C#N)cc3Cl)cc2)CC1 [CHMSA-05-A] ; value = > 50 µM

* * *

- experiment_summary: Human hepatocyte stability
- Assay type: in vitro ADME
- particulars: human, pooled human hepatocytes, human hepatocytes, 1 μM, 60 minute incubation; read-out: Human Clint (uL/min/million cells)
Let's look at some molecules and their measured hepatocyte CLint at 1 μM.
Return type: number; implicit unit µL/min/1e6 cells.

Field hepatocyte CLint at 1 μM (entry C[C@]1(O)CC[C@@H](CS(=O)(=O)c2ccc(-c3ccc(C#N)cc3F)cc2)CC1 [CHMSA-01-A] ) reads 3.7

The reported hepatocyte CLint at 1 μM of the molecule C[C@]1(O)CC[C@@H](CS(=O)(=O)c2ccc(-c3ccc(C#N)cc3Cl)cc2)CC1 [CHMSA-05-A] was 3.3

Query C[C@]1(O)CC[C@H](CS(=O)(=O)c2ccc(-c3ccc(C#N)cc3F)cc2)CC1 [CHMSA-01-B] yields hepatocyte CLint at 1 μM of 4.5

Further cases:
What the record says about O=S(=O)(N[C@H]1CC[C@H](O)CC1)c1ccc(-c2ccc(F)cc2F)cc1 [ABD599, reference compound] : hepatocyte CLint at 1 μM is 22

* * *

- assayed_system: CYP1A2 (Homo sapiens (Human), UniProt P05177)
- Sequence (P05177 whole entry): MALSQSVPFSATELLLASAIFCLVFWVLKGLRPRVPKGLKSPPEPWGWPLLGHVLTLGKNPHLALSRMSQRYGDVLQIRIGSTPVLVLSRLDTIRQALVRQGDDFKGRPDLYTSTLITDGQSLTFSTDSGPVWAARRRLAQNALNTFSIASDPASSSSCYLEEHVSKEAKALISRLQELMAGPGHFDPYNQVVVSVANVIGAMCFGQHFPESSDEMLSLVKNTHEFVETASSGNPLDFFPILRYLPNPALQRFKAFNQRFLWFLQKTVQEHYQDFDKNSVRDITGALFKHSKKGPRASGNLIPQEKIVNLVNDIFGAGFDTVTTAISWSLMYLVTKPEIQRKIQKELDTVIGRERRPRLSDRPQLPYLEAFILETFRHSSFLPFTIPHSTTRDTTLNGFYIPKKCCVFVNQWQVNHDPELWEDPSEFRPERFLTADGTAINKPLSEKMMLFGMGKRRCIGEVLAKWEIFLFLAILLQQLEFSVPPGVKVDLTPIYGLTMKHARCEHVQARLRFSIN
- experiment_summary: Human Cytochrome P450 Inhibition Assay (Bactosomes)
pIC50: −log10 of the molar value.
quantity_measured: pIC50

C[C@]1(O)CC[C@H](NS(=O)(=O)c2ccc(-c3ccc(Cl)cc3C#N)cc2)CC1 [HMC-C-01-A, reference compound] has a reported pIC50 of 4.60

So for C[C@]1(O)CC[C@@H](CS(=O)(=O)c2ccc(-c3ccc(C#N)cc3F)cc2C(F)(F)F)CC1 , the logged pIC50 turned out to be < 4.30

Reported pIC50 of C[C@]1(O)CC[C@@H](CS(=O)(=O)c2ccc(-c3ccc(C#N)cc3F)cc2)CC1 : < 4.30

Quick note, pIC50 for C[C@]1(O)CC[C@@H](CS(=O)(=O)c2ccc(-c3ccc(Cl)cc3Cl)cc2)CC1 landed at < 5.00

Noted for C[C@]1(O)CC[C@H](CS(=O)(=O)c2ccc(-c3ccc(F)cc3F)cc2C(F)(F)F)CC1 : its pIC50 reads < 5.00

Query C[C@]1(O)CC[C@@H](NS(=O)(=O)c2ccc(-c3ccc(F)cc3F)cc2)CC1 [ABD899, reference compound] yields pIC50 of < 4.60

Summary for this compound, C[C@]1(O)CC[C@@H](CS(=O)(=O)c2ccc(-c3ncc(F)cc3F)cc2C(F)(F)F)CC1 : pIC50 is < 4.60

# pIC50 (compound: C[C@]1(O)CC[C@@H](CS(=O)(=O)c2ccc(-c3ncc(F)cc3F)c(F)c2)CC1 ) is < 4.30

Sure, the documented pIC50 for C[C@]1(O)CC[C@@H](CS(=O)(=O)c2ccc(-c3ccc(C#N)cc3Cl)cc2)CC1 is < 4.30

***
The measured pIC50 associated with C[C@]1(O)CC[C@H](CS(=O)(=O)c2ccc(-c3ccc(C#N)cc3F)cc2C(F)(F)F)CC1 reads < 5.00

* * *

- assayed_system: CYP1A2 (Homo sapiens (Human))
- particulars: recombinant enzyme
Form field: pIC50 (one value per entry).
Friendly reminder that pIC50 comes from taking -log10 of the concentration in mol/L.

Memo: CC1(O)CCC(NS(=O)(=O)c2ccc(-c3ncc(Cl)cc3C#N)cc2)CC1 (stereo not shown) [HMC-N-05-A, reference compound] , reported pIC50: 4.44

Please fill in: pIC50 reported for CC1(O)CCC(NS(=O)(=O)c2ccc(-c3ccc(Cl)cc3C#N)c(Cl)c2)CC1 (stereo not shown) [HMC-C-11-A, reference compound] = 4.96

Measured pIC50 of CC1(O)CCC(NS(=O)(=O)c2ccc(-c3ccc(C#N)cc3Cl)cc2)CC1 (stereo not shown) [HMC-C-09-A, reference compound] : 4.64

* * *

- experiment_summary: Aqueous solubility in FaSSIF
- Format: physicochemical
- particulars: kinetic from dmso stock, pH 6.5, three replicates
solubility at 16 h values by entry
Give your result in µg/mL as a bare value.

Here's what some known entries look like.
The recorded solubility at 16 h for entry C[C@]1(O)CC[C@H](CS(=O)(=O)c2ccc(-c3ccc(F)cc3F)cc2)CC1 equals 40

Documented solubility at 16 h of C[C@]1(O)CC[C@@H](CS(=O)(=O)c2ccc(-c3ccc(C#N)cc3F)cc2C(F)(F)F)CC1 : 20

Further cases:
The value of solubility at 16 h measured for the molecule C[C@]1(O)CC[C@@H](CS(=O)(=O)c2ccc(-c3ccc(C#N)cc3F)cc2)CC1 turned out to be 10

Sample C[C@]1(O)CC[C@@H](CS(=O)(=O)c2ccc(-c3ncc(F)cc3F)c(F)c2)CC1 ; solubility at 16 h observed: 70

* * *

- assayed_system: CYP2C9 (Homo sapiens (Human))
- Sequence (P11712 whole entry): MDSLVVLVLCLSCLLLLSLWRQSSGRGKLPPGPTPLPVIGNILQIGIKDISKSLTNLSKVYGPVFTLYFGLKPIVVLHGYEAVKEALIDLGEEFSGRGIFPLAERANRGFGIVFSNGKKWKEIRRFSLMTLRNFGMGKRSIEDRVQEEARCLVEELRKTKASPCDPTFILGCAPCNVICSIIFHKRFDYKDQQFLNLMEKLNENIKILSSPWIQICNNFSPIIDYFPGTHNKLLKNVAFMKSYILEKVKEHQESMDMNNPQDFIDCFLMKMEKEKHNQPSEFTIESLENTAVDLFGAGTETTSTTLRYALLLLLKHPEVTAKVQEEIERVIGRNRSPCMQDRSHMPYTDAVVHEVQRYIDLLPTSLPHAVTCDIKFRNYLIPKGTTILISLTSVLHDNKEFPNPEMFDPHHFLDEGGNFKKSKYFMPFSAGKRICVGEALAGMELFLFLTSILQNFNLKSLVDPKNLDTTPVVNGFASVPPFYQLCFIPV
- experiment_summary: Human Cytochrome P450 Inhibition Assay (Bactosomes)
- particulars: recombinant Bactosomes, 10 minutes, 37° C.
Binary label based on IC50 with cut-off 10 µM: below gives Fulfilled, not below gives Not fulfilled.

Take a look at these entries with their results.
Does C[C@]1(O)CC[C@@H](CS(=O)(=O)c2ccc(-c3ccc(Cl)cc3Cl)cc2)CC1 [CHMSA-11-A] have IC50 strictly under 10 µM?
Not fulfilled

Strictly below 10 µM in IC50? CC1(O)CCC(NS(=O)(=O)c2ccc(-c3ccc(Cl)cc3C#N)c(Cl)c2)CC1 (stereo not shown) [HMC-C-11-A, reference compound]
Fulfilled

For C[C@]1(O)CC[C@@H](CS(=O)(=O)c2ccc(-c3ccc(C#N)cc3Cl)cc2)CC1 [CHMSA-05-A] , is the recorded IC50 below the cut-off of 10 µM?
Fulfilled

# TODO verify IC50 < 10 µM strictly for this compound: C[C@]1(O)CC[C@@H](NS(=O)(=O)c2ccc(-c3ccc(F)cc3F)cc2)CC1 [ABD899, reference compound]
Fulfilled

More entries:
Find out if reported IC50 for C[C@]1(O)CC[C@H](CS(=O)(=O)c2ccc(-c3ccc(C#N)cc3F)cc2C(F)(F)F)CC1 [CHMSA-02-B] is less than 10 µM
Not fulfilled

Lab note: confirm whether the reported IC50 for this compound is below 10 µM, equality not counting. compound: C[C@]1(O)CC[C@@H](CS(=O)(=O)c2ccc(-c3ccc(C#N)cc3F)cc2)CC1 [CHMSA-01-A]
Not fulfilled

API: query returns whether the compound falls strictly under 10 µM in IC50. Query: C[C@]1(O)CC[C@@H](CS(=O)(=O)c2ccc(-c3ncc(F)cc3F)c(F)c2)CC1 [CHMSA-03-A]
Not fulfilled

* * *

- assayed_system: CYP2C19 (Homo sapiens (Human), UniProt P33261)
- Sequence (P33261 whole entry): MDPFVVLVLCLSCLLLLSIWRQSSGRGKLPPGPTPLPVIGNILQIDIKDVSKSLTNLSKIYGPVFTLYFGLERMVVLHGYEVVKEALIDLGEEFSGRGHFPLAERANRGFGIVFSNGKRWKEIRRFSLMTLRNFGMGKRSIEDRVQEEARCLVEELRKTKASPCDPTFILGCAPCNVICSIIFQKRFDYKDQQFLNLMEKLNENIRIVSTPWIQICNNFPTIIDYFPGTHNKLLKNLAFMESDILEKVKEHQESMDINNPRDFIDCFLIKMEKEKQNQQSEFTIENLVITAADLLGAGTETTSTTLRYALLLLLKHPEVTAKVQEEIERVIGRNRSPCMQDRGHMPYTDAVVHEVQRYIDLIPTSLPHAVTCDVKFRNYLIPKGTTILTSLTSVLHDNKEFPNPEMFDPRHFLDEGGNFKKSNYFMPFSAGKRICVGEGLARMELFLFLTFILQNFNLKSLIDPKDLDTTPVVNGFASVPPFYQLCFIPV
- experiment_summary: Human Cytochrome P450 Inhibition Assay (Bactosomes)
- particulars: recombinant Bactosomes, 10 minutes, 37° C.
quantity_measured: IC50

Some solved cases for reference:
Noted for C[C@]1(O)CC[C@H](CS(=O)(=O)c2ccc(-c3ccc(C#N)cc3F)cc2C(F)(F)F)CC1 [CHMSA-02-B] : its IC50 reads > 10 µM

The measured IC50 associated with CC1(O)CCC(NS(=O)(=O)c2ccc(-c3cc(F)c(F)cc3F)cc2)CC1 (stereo not shown) [HMC-C-10-B, reference compound] reads 8.5 µM

For reference, reported IC50 for CC1(O)CCC(NS(=O)(=O)c2ccc(-c3ccc(Cl)cc3C#N)c(Cl)c2)CC1 (stereo not shown) [HMC-C-11-A, reference compound] stands at 5.1 µM

Kindly note the recorded IC50 for CC1(O)CCC(NS(=O)(=O)c2ccc(-c3ncc(Cl)cc3C#N)cc2)CC1 (stereo not shown) [HMC-N-05-A, reference compound] , which is > 50 µM

---
Reported IC50 of C[C@]1(O)CC[C@@H](CS(=O)(=O)c2ccc(-c3ncc(F)cc3F)c(F)c2)CC1 [CHMSA-03-A] : > 50 µM

Query CC1(O)CCC(NS(=O)(=O)c2ccc(-c3ccc(C#N)cc3Cl)cc2)CC1 (stereo not shown) [HMC-C-09-A, reference compound] yields IC50 of > 50 µM

Sample C[C@]1(O)CC[C@H](NS(=O)(=O)c2ccc(-c3ccc(Cl)cc3C#N)cc2)CC1 [HMC-C-01-A, reference compound] ; IC50 observed: > 25 µM
